B1: SEC22B (parent)
chain: FPKKLAFAYLEDLHSEFDEQHGKK

- Variants of: B1
- ASSAY_DETAILS: protein stability index of a GFP-peptide fusion (GPS, HEK-293T) (PSI 1-6); higher = more stable;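 note: lentivirally expressed fusions sorted by FACS into six bins by GFP to DsRed ratio, PSI derived from sequencing read proportions per bin multiplied by bin number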
- ASSAY_SETUP: c terminus: a fixed tail appended
MEASUREMENT_TYPE: protein stability index

Requested read-out: protein stability index. Entry: FPKKLAFAYLEDLHSETDEQHGKK [F17T]
2.99

Next up: FPKKLAFAYLEDLHSEFDEQAGKK [H21A]
2.93

Next up: FPKKLAFAYPEDLHSEFDEQHGKK [L10P]
2.92

Next up: FPEKLAFAYLEDLHSEFDEQHGKK [K3E]
2.95

Next up: FPKKLAFAKLEDLHSEFDEQHGKK [Y9K]
3.08
